Data provenance is PubChem BioAssay (NCI).

# PROTOCOL_NOTES: NCI Yeast Anticancer Drug Screen. Data for the CLN2oe strain (AID 163)
# EXPERIMENTAL_CONDITIONS: S. cerevisiae CLN2oe strain, at 11.0 µM
Compounds without any hit were thinned out: in the full panel of roughly 79,000, 15% have a hit. The source made the active and inactive calls. Rule as the data show it: active = growth inhibition above about 70%; inactive = the rest.
Mark one answer only. Choices: active, inactive

Solved cases below.
- c1ccc2cc3n[se]nc3cc2c1: inactive
- CC12CCC(C1)C(C)(C)C2OC(=O)c1ccccc1N (stereo unspecified): inactive
- OC1CCCC2CCC[N-]C12.OC1CCCC2CCC[N-]C12.[O]=[V][OH] (stereo unspecified): active

State the result this test recorded for `O=Cc1ccc(C(F)(F)F)cc1.[C-]#[O+].[C-]#[O+].[C-]#[O+].[Cr]` .
inactive

State the result this test recorded for C[C@@]12CCC(=O)C=C1CC[C@H]1C2=CC[C@]2(C)C1CC[C@@]2(C)O (stereo partly specified) .
inactive

State the result this test recorded for C/C(=N\N=C(N)N)C(CN1CCOCC1)C(c1ccccc1)c1c(O)c2ccccc2oc1=O (stereo unspecified) .
inactive
